Listing of entries alongside the reported solubility in G1/S (log2).
tested on: HeLa Kyoto; assay: solubility in G1/S (NP-40 vs SDS abundance) (log2 ratio); higher = more soluble; conditions: cell cycle stage: G1/S

Some sequences with recorded solubility in G1/S (log2):
MASPSLERPEKGAGKSEFRNQKPKPENQDESELLTVPDGWKEPAFSKEDNPRGLLEESSFATLFPKYREAYLKECWPLVQKALNEHHVNATLDLIEGSMTVCTTKKTFDPYIIIRARDLIKLLARSVSFEQAVRILQDDVACDIIKIGSLVRNKERFVKRRQRLIGPKGSTLKALELLTNCYIMVQGNTVSAIGPFSGLKEVRKVVLDTMKNIHPIYNIKSLMIKRELAKDSELRSQSWERFLPQFKHKNVNKRKEPKKKTVKKEYTPFPPPQPESQIDKELASGEYFLKANQKKRQKMEAIKAKQAEAISKRQEERNKAFIPPKEKPIVKPKEASTETKIDVASIKEKVKKAKNKKLGALTAEEIALKMEADEKKKKKKK [KRR1] :: -1.22
MAQYKGAASEAGRAMHLMKKREKQREQMEQMKQRIAEENIMKSNIDKKFSAHYDAVEAELKSSTVGLVTLNDMKAKQEALVKEREKQLAKKEQSKELQMKLEKLREKERKKEAKRKISSLSFTLEEEEEGGEEEEEAAMYEEEMEREEITTKKRKLGKNPDVDTSFLPDRDREEEENRLREELRQEWEAKQEKIKSEEIEITFSYWDGSGHRRTVKMRKGNTMQQFLQKALEILRKDFSELRSAGVEQLMYIKEDLIIPHHHSFYDFIVTKARGKSGPLFNFDVHDDVRLLSDATVEKDESHAGKVVLRSWYEKNKHIFPASRWEPYDPEKKWDKYTIR [FAM50A] :: 0.0519

Please fill in: solubility in G1/S (log2) reported for MSSGIHVALVTGGNKGIGLAIVRDLCRLFSGDVVLTARDVTRGQAAVQQLQAEGLSPRFHQLDIDDLQSIRALRDFLRKEYGGLDVLVNNAGIAFKVADPTPFHIQAEVTMKTNFFGTRDVCTELLPLIKPQGRVVNVSSIMSVRALKSCSPELQQKFRSETITEEELVGLMNKFVEDTKKGVHQKEGWPSSAYGVTKIGVTVLSRIHARKLSEQRKGDKILLNACCPGWVRTDMAGPKATKSPEEGAETPVYLALLPPDAEGPHGQFVSEKRVEQW [CBR1] = 0.626

----------
tested on: HeLa Kyoto; test: thermal stability score vs G1/S (z-score of summed log2 fold changes over temperatures); higher = more thermally stable than in G1/S; settings: cell cycle stage: early G1 (4.5 h after nocodazole release)
Listing of entries alongside the reported thermal stability score.
Number, no unit, nothing else.

Some sequences with recorded thermal stability score:
MPVKGGTKCIKYLLFGFNFIFWLAGIAVLAIGLWLRFDSQTKSIFEQETNNNNSSFYTGVYILIGAGALMMLVGFLGCCGAVQESQCMLGLFFGFLLVIFAIEIAAAIWGYSHKDEVIKEVQEFYKDTYNKLKTKDEPQRETLKAIHYALNCCGLAGGVEQFISDICPKKDVLETFTVKSCPDAIKEVFDNKFHIIGAVGIGIAVVMIFGMIFSMILCCAIRRNREMV [CD9] :: 2.82
MASPSLERPEKGAGKSEFRNQKPKPENQDESELLTVPDGWKEPAFSKEDNPRGLLEESSFATLFPKYREAYLKECWPLVQKALNEHHVNATLDLIEGSMTVCTTKKTFDPYIIIRARDLIKLLARSVSFEQAVRILQDDVACDIIKIGSLVRNKERFVKRRQRLIGPKGSTLKALELLTNCYIMVQGNTVSAIGPFSGLKEVRKVVLDTMKNIHPIYNIKSLMIKRELAKDSELRSQSWERFLPQFKHKNVNKRKEPKKKTVKKEYTPFPPPQPESQIDKELASGEYFLKANQKKRQKMEAIKAKQAEAISKRQEERNKAFIPPKEKPIVKPKEASTETKIDVASIKEKVKKAKNKKLGALTAEEIALKMEADEKKKKKKK [KRR1] :: 3.32
MSRYLLPLSALGTVAGAAVLLKDYVTGGACPSKATIPGKTVIVTGANTGIGKQTALELARRGGNIILACRDMEKCEAAAKDIRGETLNHHVNARHLDLASLKSIREFAAKIIEEEERVDILINNAGVMRCPHWTTEDGFEMQFGVNHLGHFLLTNLLLDKLKASAPSRIINLSSLAHVAGHIDFDDLNWQTRKYNTKAAYCQSKLAIVLFTKELSRRLQGSGVTVNALHPGVARTELGRHTGIHGSTFSSTTLGPIFWLLVKSPELAAQPSTYLAVAEELADVSGKYFDGLKQKAPAPEAEDEEVARRLWAESARLVGLEAPSVREQPLPR [RDH13] :: -0.911
MGSAGLSRLHGLFAVYKPPGLKWKHLRDTVELQLLKGLNARKPPAPKQRVRFLLGPMEGSEEKELTLTATSVPSFINHPLVCGPAFAHLKVGVGHRLDAQASGVLVLGVGHGCRLLTDMYNAHLTKDYTVRGLLGKATDDFREDGRLVEKTTYDHVTREKLDRILAVIQGSHQKALVMYSNLDLKTQEAYEMAVRGLIRPMNKSPMLITGIRCLYFAPPEFLLEVQCMHETQKELRKLVHEIGLELKTTAVCTQVRRTRDGFFTLDSALLRTQWDLTNIQDAIRAATPQVAAELEKSLSPGLDTKQLPSPGWSWDSQGPSSTLGLERGAGQ [TRUB2] :: -0.241

# context switch: different sequence, same thermal stability score
Please fill in: thermal stability score reported for MKPSGEDQAALAAGPWEECFQAAVQLALRAGQIIRKALTEEKRVSTKTSAADLVTETDHLVEDLIISELRERFPSHRFIAEEAAASGAKCVLTHSPTWIIDPIDGTCNFVHRFPTVAVSIGFAVRQELEFGVIYHCTEERLYTGRRGRGAFCNGQRLRVSGETDLSKALVLTEIGPKRDPATLKLFLSNMERLLHAKAHGVRVIGSSTLALCHLASGAADAYYQFGLHCWDLAAATVIIREAGGIVIDTSGGPLDLMACRVVAASTREMAMLIAQALQTINYGRDDEK [IMPA2] = -0.528

----------
test system: HeLa Kyoto; assay: melting temperature (median over replicates), in situ; higher = more thermally stable; conditions: cell cycle stage: mitosis
Listing of entries alongside the reported melting temperature.
Field format: number, assumed °C, no unit text.

MGQREMWRLMSRFNAFKRTNTILHHLRMSKHTDAAEEVLLEKKGCTGVITLNRPKFLNALTLNMIRQIYPQLKKWEQDPETFLIIIKGAGGKAFCAGGDIRVISEAEKAKQKIAPVFFREEYMLNNAVGSCQKPYVALIHGITMGGGVGLSVHGQFRVATEKCLFAMPETAIGLFPDVGGGYFLPRLQGKLGYFLALTGFRLKGRDVYRAGIATHFVDSEKLAMLEEDLLALKSPSKENIASVLENYHTESKIDRDKSFILEEHMDKINSCFSANTVEEIIENLQQDGSSFALEQLKVINKMSPTSLKITLRQLMEGSSKTLQEVLTMEYRLSQACMRGHDFHEGVRAVLIDKDQSPKWKPADLKEVTEEDLNNHFKSLGSSDLKF [HIBCH] :: 50.2
MVRTKTWTLKKHFVGYPTNSDFELKTAELPPLKNGEVLLEALFLTVDPYMRVAAKRLKEGDTMMGQQVAKVVESKNVALPKGTIVLASPGWTTHSISDGKDLEKLLTEWPDTIPLSLALGTVGMPGLTAYFGLLEICGVKGGETVMVNAAAGAVGSVVGQIAKLKGCKVVGAVGSDEKVAYLQKLGFDVVFNYKTVESLEETLKKASPDGYDCYFDNVGGEFSNTVIGQMKKFGRIAICGAISTYNRTGPLPPGPPPEIVIYQELRMEAFVVYRWQGDARQKALKDLLKWVLEGKIQYKEYIIEGFENMPAAFMGMLKGDNLGKTIVKA [PTGR1] :: 53.5
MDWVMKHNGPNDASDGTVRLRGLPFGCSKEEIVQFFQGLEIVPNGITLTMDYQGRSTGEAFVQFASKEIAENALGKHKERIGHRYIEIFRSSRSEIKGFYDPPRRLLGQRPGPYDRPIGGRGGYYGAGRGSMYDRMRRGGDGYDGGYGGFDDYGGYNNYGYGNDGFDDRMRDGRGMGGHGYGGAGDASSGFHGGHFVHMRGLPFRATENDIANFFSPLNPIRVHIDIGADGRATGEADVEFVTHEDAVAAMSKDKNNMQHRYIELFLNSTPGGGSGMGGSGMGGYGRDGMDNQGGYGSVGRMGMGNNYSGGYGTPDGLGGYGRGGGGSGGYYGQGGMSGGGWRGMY [HNRNPH3] :: 47.7

# context switch: different sequence, same melting temperature
Please fill in: melting temperature reported for MASLLAKDAYLQSLAKKICSHSAPEQQARTRAGKTQGSETAGPPKKKRKKTQKKFRKREEKAAEHKAKSLGEKSPAASGARRPEAAKEEAAWASSSAGNPADGLATEPESVFALDVLRQRLHEKIQEARGQGSAKELSPAALEKRRRRKQERDRKKRKRKELRAKEKARKAEEATEAQEVVEATPEGACTEPREPPGLIFNKVEVSEDEPASKAQRRKEKRQRVKGNLTPLTGRNYRQLLERLQARQSRLDELRGQDEGKAQELEAKMKWTNLLYKAEGVKIRDDERLLQEALKRKEKRRAQRQRRWEKRTAGVVEKMQQRQDRRRQNLRRKKAARAERRLLRARKKGRILPQDLERAGLV [SURF6] = 54.5
